# Tested on: muscle progenitors derived from DMD hiPSC
# assay-details: Myotube assay: total myotube area per well (alpha-actinin staining)
# Format: cell-based, human
# conditions-used: Homo sapiens, Myotube, 72 h, myogenic activity, half-maximal generation of myotubes; 10 points dose-response 1.5 nM to 30 µM; 3 days; DMD or WT cell source not given
Record form. Attribute: EC50. Fill in for each entry.

### Prompt Which EC50 value belongs to CSc1cc(Oc2ccnc3[nH]c(=O)cnc23)ccc1NC(=O)Nc1cc(C(C)(C)C)nn1-c1ccc(CN2CCOCC2)cc1 ?
### Response < 0.5 µM

### Prompt // lookup EC50 for CSc1cc(Oc2ccnc(NC(=O)CO)c2)ccc1NC(=O)Nc1cc(C(C)(C)C)nn1-c1ccccc1
### Response 0.5 to 1 µM

### Prompt Form field: reported EC50 of CCOC(=O)Nc1cc(Oc2ccc(NC(=O)Nc3cc(C(C)(C)C)no3)c3ccccc23)ccn1
### Response < 0.5 µM

### Prompt What does the data say about its EC50? Entry: CC(C)(C)c1cc(NC(=O)Nc2ccc(Oc3ccc(F)cc3)cc2F)n(-c2ccccc2)n1
### Response 1 to 5 µM

### Prompt Look at this molecule and give its reported EC50. CC(C)(C)c1nnc(NC(=O)Nc2ccc(Oc3ccnc4[nH]c(=O)cnc34)cc2F)s1 [(r)]
### Response ≥ 5 µM

### Prompt Reported EC50, molecule CC(C)(C)c1cc(NC(=O)Nc2ccc(Oc3ccnc4[nH]c(=O)cnc34)c(F)c2F)n(-c2ccccc2)n1 : ____
### Response < 0.5 µM

### Prompt Which EC50 is listed for CSc1cc(Oc2ccnc3[nH]c(=O)cnc23)ccc1NC(=O)Nc1cc(C(C)(C)C)nn1-c1cccc(F)c1 ?
### Response < 0.5 µM

### Prompt If you can, please state the reported EC50 value of CSc1cc(Oc2cccc3[nH]ncc23)ccc1NC(=O)Nc1cc(C(C)(C)C)nn1-c1ccccc1 .
### Response 1 to 5 µM

----------
# Tested on: muscle progenitors derived from DMD hiPSC
# assay-details: Myotube assay: total myotube area per well (alpha-actinin staining)
# Type: cell-based, human
# conditions-used: Homo sapiens, Myotube, 72 h, myogenic activity, half-maximal generation of myotubes; 10 points dose-response 1.5 nM to 30 µM; 3 days; DMD or WT cell source not given
For each record, write down the corresponding EC50.

### Prompt Which EC50 is listed for CC(C)(C)c1cc(NC(=O)Nc2ccc(Oc3ccnc4[nH]c(=O)cnc34)cc2F)n(Cc2ccccc2)n1 ?
### Response 1000 to 5000 nM

### Prompt EC50 for CNC(=O)c1ccc(Oc2ccc(NC(=O)Nc3cc(C(C)(C)C)nn3-c3ccccc3)c(SC)c2)cn1 ?
### Response 500 to 1000 nM

### Prompt Need EC50, item CC1(c2cc(NC(=O)Nc3ccc(Oc4ccnc5[nH]c(=O)cnc45)cc3F)n(-c3ccccc3)n2)COC1
### Response ≥ 5000 nM

### Prompt Value lookup for EC50; key = CCOC(=O)Nc1cc(Oc2ccc(NC(=O)Nc3cc(C(C)(C)C)no3)c(SC)c2)ccn1
### Response < 500 nM

### Prompt I'd like to know its EC50. The compound in question is CC(C)(C)c1cc(NC(=O)Nc2ccc(Oc3ccnc4[nH]c(=O)cnc34)cc2F)n(CCN2CCOCC2)n1
### Response 1000 to 5000 nM

### Prompt What does the data say about its EC50? Entry: CSc1cc(Oc2ncnc3[nH]c(=O)cnc23)ccc1NC(=O)Nc1cc(C(C)(C)C)nn1-c1ccccc1
### Response ≥ 5000 nM

### Prompt May I ask what EC50 has been recorded for CSc1cc(Oc2ccnc(NC(=O)OCc3ccccc3)c2)ccc1NC(=O)Nc1cc(C(C)(C)C)nn1-c1ccccc1 ?
### Response 500 to 1000 nM

### Prompt Endpoint output: EC50 of CC(C)(C)c1cc(NC(=O)Nc2ccc(Oc3ccnc4[nH]c(=O)cnc34)cc2F)[nH]n1 . Value?
### Response ≥ 5000 nM

### Prompt Given the compound CC(C)(C)c1cnc(NC(=O)Nc2ccc(Oc3ccnc4c3CCC(=O)N4)c3ccccc23)s1 , what is its reported EC50?
### Response < 500 nM

### Prompt Given the compound CSc1cc(Oc2ccnc3[nH]c(=O)cnc23)ccc1NC(=O)Nc1nnc(C(C)(C)C)o1 , what is its reported EC50?
### Response ≥ 5000 nM

### Prompt What EC50 value was documented for this compound, CC(C)(C)c1cc(NC(=O)Nc2ccc(Oc3ccnc4[nH]c(=O)cnc34)cc2F)n(-c2ccc3ncccc3c2)n1 ?
### Response < 500 nM

### Prompt # get_value(readout='EC50', item= CCOC(=O)Nc1cc(Oc2ccc(NC(=O)Nc3ncc(C(C)(C)C)s3)c3ccccc23)ccn1 )
### Response < 500 nM

### Prompt Report EC50 for CSc1cc(Oc2cccc3c2CCC(=O)N3)ccc1NC(=O)Nc1cc(C(C)(C)C)nn1-c1ccccc1 please.
### Response ≥ 5000 nM

### Prompt What measured EC50 goes with CSc1cc(Oc2ccnc(NC(=O)OC(C)(C)C)c2)ccc1NC(=O)Nc1cc(C(C)(C)C)nn1-c1ccccc1 ?
### Response < 500 nM

### Prompt For the compound CC(C)(C)c1cc(NC(=O)Nc2ccc(Oc3ccnc4[nH]c(=O)cnc34)cc2F)n(-c2cccnc2)n1 , what EC50 is on record?
### Response 500 to 1000 nM

### Prompt Data request, read-out EC50, for CSc1cc(Oc2ccnc3[nH]c(=O)cnc23)ccc1NC(=O)Nc1ncc(C(C)(C)C)s1
### Response ≥ 5000 nM
